Please provide measured pKd for the entries that follow.
- SYSTEM: T1, ARHGEF11, O15085
- T1 sequence (O15085 42-136, limits assumed, looked up): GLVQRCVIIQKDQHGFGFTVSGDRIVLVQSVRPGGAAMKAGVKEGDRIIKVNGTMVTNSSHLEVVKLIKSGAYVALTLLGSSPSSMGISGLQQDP
- EXPERIMENT_DESCRIPTION: holdup assay
- Parameters: key: below the threshold = too weak to quantify, mostly under pKd 3.1 to 4
- EXPERIMENTAL_CONTEXT: plain residues with an end cap or a label only (N-terminal biotin on a linker: ado-ado)

Worked cases, answers included:
binder="KKMLQRRTLL [OR8G1, Q15617]" observed_property=pKd measured_value=3.89
binder="TNSRHGETTV [FZD2, Q14332]" observed_property=pKd measured_value=4.07
binder="DPAESMESLV [PTPRG, P23470]" observed_property=pKd measured_value=3.61
binder="SPDRDRESIV [SCN5A, Q14524]" observed_property=pKd measured_value=3.51
binder="STKRKLASAV [NCF1, P14598]" observed_property=pKd measured_value=3.74
binder="SRSVVESDEL [MYPN, Q86TC9]" observed_property=pKd measured_value=3.74

Which value of pKd has been reported for GEDRSPPTAL [MKNK1, Q9BUB5] in the records?
4.01
